Test: NCI Yeast Anticancer Drug Screen. Data for the cln2 rad14 strain (AID 165);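 further: 0% = growth equal to vehicle treated cultures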
Settings: S. cerevisiae cln2 rad14 strain, at 50.0 µM, hits give high values
Description: Growth inhibition of yeast strains with defined genetic alterations is measured as a screen for potential anti-cancer activity. Selected strains with alterations in DNA damage repair or cell cycle control were exposed to compounds and growth inhibition was measured relative to vehicle treated controls. The strain used in this assay is cln2 rad14
About 79,000 compounds went through this panel and 15% of them were active in at least one assay; those are over-represented in the sample as a whole.
assay-readout: growth inhibition (%)
Just the number please, in %, no unit attached.

Example entries and their recorded answers appear below.
CNC1NC(=O)c2ccccc2N1Cc1ccc(F)cc1 (centres undefined) | -19.6
Cc1ccc(NC(=O)COc2cc(Cl)c(Cl)cc2Cl)c([N+](=O)[O-])c1 | -0.55
COc1ccccc1CNCCCCCCNCCSSCCNCCCCCCNCc1ccccc1OC | -36.7
Cc1c(C)c(C)c(CN2CC(=O)c3ccccc3C2=O)c(C)c1C | 14.1
CCCC(=O)c1ccc(C)cc1 | 13.5

Please look at the following molecule next.
[ask] What measured growth inhibition goes with O=C(Cc1ccc(Cl)cc1)c1ccccc1Cl ?
[reply] 1.7
